// reported koff for each item listed
# System Name: T1, human serum albumin (Homo sapiens, UniProt P02768)
# T1 construct: human serum albumin (HSA), purchased from Sigma-Aldrich Japan; dissolved in phosphate buffer and dialysed; also called HSA; source: bought: Sigma-Aldrich Japan
# Method Summary: SPR; Biacore T200; HSA immobilised on CM5 chip by amine coupling (~1000 RU); increasing concentrations of antibodies injected at 30 μl/min; PBS with 0.05% Tween-20; global fit, 1:1 Langmuir model
# Test Conditions: both partners purified
Report the value in s⁻¹ with no unit label.

Field: example entries. Status: answers known.
• Z18-V2L (VHH, IMGT numbering; the methods describe vector and expression for Z18 and Z26; source: E. coli BL21 (DE3), purified (Ni-NTA, SEC)) VHH: QLQLVESGGGLVQAGDSLRLSCAASGRTFSGYAMGWFRQAPGKEREFVARINWSGTLTYYADSVKGRFTGSRDNAKNTVYLQMNSLKPEDTAVYYCAQRGDSGSNYDPSGYSYWGQGTQVTVSS = 0.276
• Z18-G78A (VHH, IMGT numbering; the methods describe vector and expression for Z18 and Z26; source: E. coli BL21 (DE3), purified (Ni-NTA, SEC)) VHH: QVQLVESGGGLVQAGDSLRLSCAASGRTFSGYAMGWFRQAPGKEREFVARINWSGTLTYYADSVKGRFTASRDNAKNTVYLQMNSLKPEDTAVYYCAQRGDSGSNYDPSGYSYWGQGTQVTVSS = 1.1
• Z18-S133R (VHH, IMGT numbering; the methods describe vector and expression for Z18 and Z26; source: E. coli BL21 (DE3), purified (Ni-NTA, SEC)) VHH: QVQLVESGGGLVQAGDSLRLSCAASGRTFSGYAMGWFRQAPGKEREFVARINWSGTLTYYADSVKGRFTGSRDNAKNTVYLQMNSLKPEDTAVYYCAQRGDSGSNYDPSGYRYWGQGTQVTVSS = 0.078
• single-domain VHH antibody Z26 (VHH, differs from Z18 at nine residues; pRA2 vector with N-terminal pelB signal peptide; also called wild-type Z26; source: E. coli BL21 (DE3), purified (Ni-NTA, SEC); not shown: hexa-histidine, C-terminal, kept) VHH: QLQLVESGGGLVQAGDSLRLSCAASGRTFSDYAMGWFRQAPGKELEFVARVNWSGLLTYYADSVKGRFTASRDNAKSTVYLQMNSLKPEDTAVYYCAQRGDSGSNFDPSGYRYWGQGTQVTVSS = 0.000816
• Z18-G32D/R50L/G78A/S133R (VHH, IMGT numbering; the methods describe vector and expression for Z18 and Z26; source: E. coli BL21 (DE3), purified (Ni-NTA, SEC)) VHH: QVQLVESGGGLVQAGDSLRLSCAASGRTFSDYAMGWFRQAPGKELEFVARINWSGTLTYYADSVKGRFTASRDNAKNTVYLQMNSLKPEDTAVYYCAQRGDSGSNYDPSGYRYWGQGTQVTVSS = 0.412

Q) Give its koff value. Item: Z18-T61L (VHH, IMGT numbering; the methods describe vector and expression for Z18 and Z26; source: E. coli BL21 (DE3), purified (Ni-NTA, SEC)) VHH: QVQLVESGGGLVQAGDSLRLSCAASGRTFSGYAMGWFRQAPGKEREFVARINWSGLLTYYADSVKGRFTGSRDNAKNTVYLQMNSLKPEDTAVYYCAQRGDSGSNYDPSGYSYWGQGTQVTVSS
A) 0.037
